target-desc: T1, His-tagged human TREM2 ECD (human, UniProt Q9NZC2 19-172)
T1 construct: Biacore and HDX say only recombinant human TREM2 (ECD); also called recombinant human TREM2; hTREM2
T1 sequence: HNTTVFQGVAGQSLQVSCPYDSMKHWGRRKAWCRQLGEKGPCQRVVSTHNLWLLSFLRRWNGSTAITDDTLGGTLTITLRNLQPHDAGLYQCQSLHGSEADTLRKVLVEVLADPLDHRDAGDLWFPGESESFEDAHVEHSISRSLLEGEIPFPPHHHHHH
assay-details: SPR (Biacore), antibody captured via anti-human Fab, recombinant TREM2 ECD injected, 1:1 fit
Checkbox rule: Kd lower than 2 nM = Condition met; Kd not lower than 2 nM = Condition not met.

## Task Answer whether the binder CL0020188 (antibody, V domains shown, also called Clone CL0020188) VH: EVKLLDSGGGLVQAGGSLRLSCAGSGFTFTDFYMSWIRQPPGKAPEWLGVIRNKANGYTAGYNPSVKGRFTISRDNTQNILYLQMNTLRAEDTAIYYCARLTYGFDYWGQGVMVTVSS VL: DIVMTQGALPNPVPSGESASITCQSSKSLLHSNGKTYLNWYLQRPGQSPQLLIYWMSTRASGVSDRFSGSGSGTDFTLKISSVEAEDVGVYYCQQFLEYPFTFGSGTKLEIK has Kd strictly less than 2 nM
## Result Condition not met

## Task Answer whether the binder CL0020201 (antibody, V domains shown, also called Clone CL0020201) VH: EVQLQQSGPVLVKPGASVRMSCKPSGYTFTDYYMNWVKQSHGKSLEWIGSINPYTGGSSYNQNFRGKATLTVDKSSSTAYMELNSLTSEDSAVYYCARGSYYSNLGFAYWGQGTLVTVSA VL: DVQLTQSPSFLTASPGETITINCRASKSISKYLAWYQEKPGKTNKLLISSGSTLQSGIPSRFSGSGSGTDFTLTISSLEPEDFAMYYCQQYSEYPFTFGSGTKLEIK has Kd strictly less than 2 nM
## Result Condition met

## Task Answer whether the binder CL0020308 (antibody, V domains shown, also called Clone CL0020308) VH: QVQLKQSGPSLVQPSQSLSITCTVSGFSLTTYGIHWVRQSPGKGLEWLGVIWTGGSTAFNAAFMSRLSITKDNSKSQVFFKMNSLQADDTAIYYCAKVGFHSATDYWGQGTSVTVSS VL: DVLMTQTPLSLPVTLGDQASISCRSSQNLVHSNGNTYLEWYLQKPGQSPKLLIYKVSNRFSGVPDRFSGSGSGTDFTLKISRVEAEDLGLYYCFQGSHVPFTFGSGTKLEIK has Kd strictly less than 2 nM
## Result Condition not met

## Task Answer whether the binder CL0020107 (antibody, V domains shown, also called Clone CL0020107) VH: QVQLQQPGAELVKPGASVKMSCRASGYTFTNYWISWVKQRPGQGLEWIGDIYPHSTSTNYNERFRSKATLTVDKSSTTAYMQLSSLTSEDSAVYYCAREGFGISAWGQGTTLTVSS VL: QIVLTQSPAIMSASPGEKVTITCSATSSVSYMHWFQQKPGTSPKLWIYSTSNLASGVPARFSGSGSGTSHSLTISRMEAEDAATYYCQQRSSYPLTFGSGTKLELK has Kd strictly less than 2 nM
## Result Condition met

## Task Answer whether the binder CL0020206 (antibody, V domains shown, also called Clone CL0020206) VH: EVQLQQSGPVLVKPGASVKMSCKASGYTFTDYYMNWVKQSHGKSLEWIGIINPYSGGISYNQKFKGKAILTVDKSSSTAYMELNSLTSEASAVYYCTRRNWDGRYAMDYWGQGTSVTVSS VL: DIVMTQSHKFMSTSVGDRVSITYKASQDVGSAVAWYQQKPGQSPKLLIYWTSTRHTGVPDRFTGSGSGTDFTLTISNVQSEDLADYFCQQYSSYPFTFGGGTKLEIK has Kd strictly less than 2 nM
## Result Condition met
